Test system: HepG2
Procedure summary: Cytotoxicity against human HepG2 cells assessed as reduction in cell viability after 72 hrs by MTT assay
Format: cell-based
Condition: hepg2, 72 h
Property name: Activity (µg/mL)
Answer in µg/mL, number only, no unit symbol.

Give me measured Activity, please, for this compound: C=CCOc1cccc(NC(=O)Nc2ccccc2)c1 150.6

Give Activity for CC(C)=CCOc1cccc(NC(=O)Nc2ccc(Cl)cc2)c1 122.3

Please report Activity for the following compound: CC(C)=CCOc1cccc(NC(=O)Nc2ccccc2)c1 168.2

Answer with the recorded Activity of CC(C)=CCOc1cccc(NC(=O)Nc2cccc(Br)c2)c1 only. 148.1

Fill in reported Activity for this entry: CC(C)=CCOc1cccc(NC(=O)Nc2ccccc2C(F)(F)F)c1 71.4

Return Activity for the following compound: CC(C)=CCOc1cccc(NC(=O)Nc2cccc(C(=O)O)c2)c1 132.6

Dear colleague, please send me the reported Activity for CC(C)=CCOc1ccc(NC(=O)Nc2ccccc2)cc1 when you can. 124.7

Recall and state the measured Activity for CC(C)=CCOc1cccc(NC(=O)Nc2ccccc2F)c1 . 82.4

Item CC(C)=CCOc1cccc(NC(=O)Nc2cccc(C(F)(F)F)c2)c1 : provide Activity 135.6

Determine its reported Activity: CC(C)=CCOc1cccc(NC(=O)Nc2ccccc2Br)c1 131.9

Using known records, supply Activity for CCCCOc1cccc(NC(=O)Nc2ccccc2)c1 124.1

Quote Activity reported for C=CCOc1cccc(NC(=O)Nc2ccccc2C)c1 please. 102.4

Please look at this compound and report its Activity: CC(C)=CCOc1cccc(NC(=O)Nc2cccc(F)c2)c1 94

Retrieve Activity measured for CCCCOc1ccc(NC(=O)Nc2ccccc2)cc1 and print it. 132.5

Report measured Activity; entry is CC(C)=CCOc1cccc(NC(=O)Nc2ccccc2C)c1 163.4

For CCCCOc1cccc(NC(=O)Nc2cccc([N+](=O)[O-])c2)c1 , write its Activity. 97.3

For the compound CC(C)=CCOc1cccc(NC(=O)Nc2cccc(Cl)c2)c1 , give its reported Activity. 114.3

Tell me its Activity given CC(C)=CCOc1cccc(NC(=O)Nc2ccc(Br)cc2)c1 as the entry. 135.6

Kindly indicate its recorded Activity. Item: CC(C)CCOc1ccc(NC(=S)Nc2ccc(OCCC(C)C)cc2)cc1 [TIOCARLIDE] 31.3

Recall and state the measured Activity for CC(C)=CCOc1cccc(NC(=O)Nc2ccc(C)cc2)c1 . 140.6

Quickly give me recorded Activity for CC(C)=CCOc1cccc(NC(=O)Nc2cccc(C)c2)c1 175.3

For C=CCOc1ccc(NC(=O)Nc2cccc([N+](=O)[O-])c2)cc1 , write its Activity. 111.4

Complete the entry with Activity for CC(C)=CCOc1cccc(NC(=O)Nc2ccc([N+](=O)[O-])cc2)c1 91.6

Tell me Activity reported for CC(C)=CCOc1cccc(NC(=O)Nc2ccc(F)cc2)c1 102.8
